- Assay: Plasma pharmacokinetics, QD and BID cohorts (non-compartmental)
- Format: in vivo, human
- Particulars: human, plasma, oral, 150 mg, 150 mg BID, C1D21, median, n=6, plasma; read-out: Tmax
Property: Tmax (h)
Numbers only, in h.

Requested read-out: Tmax. Entry: Nc1ncc(-c2cnn(C3CCNCC3)c2)cc1-c1nnc(CC2CC2)o1 [SLC-391] 2.9

----------
- Assay: Plasma pharmacokinetics, QD and BID cohorts (non-compartmental)
- Type: in vivo, human
- Particulars: human, plasma, oral, 75 mg, 75 mg BID, C1D1, median, n=3, plasma; read-out: AUC0–last
- Procedure: PK parameters were calculated by standard non-compartmental methods for SLC-391. Due to the long half-life of SLC-391 compared to the dosing interval, it was not possible to calculate a number of PK parameters, including plasma half-life and rate of elimination. Accumulation was assessed from the mean accumulation ratio factor (AR factor) calculated as the repeated dose (C1D21) mean value/single dose (C1D1) mean value for the PK parameters Cmax, AUC0–12, and AUC0–last for each dose group. […]
Property: AUC(0-t)
Put your answer as a value accompanied by its unit after it.

Requested read-out: AUC(0-t). Entry: `Nc1ncc(-c2cnn(C3CCNCC3)c2)cc1-c1nnc(CC2CC2)o1` 1110 ng·h/mL

----------
- Assay: Plasma pharmacokinetics, QD and BID cohorts (non-compartmental)
- Assay type: in vivo, human
- Particulars: human, plasma, oral, 125 mg, QD; C1D1; plasma; read-out: Tmax, Median
Property: Tmax (h)
Numbers only, in h.

Requested read-out: Tmax. Entry: Nc1ncc(-c2cnn(C3CCNCC3)c2)cc1-c1nnc(CC2CC2)o1 [SLC-391] 2.1

----------
- Assay: Plasma pharmacokinetics, QD and BID cohorts (non-compartmental)
- Assay type: in vivo, human
- Particulars: human, plasma, oral, 125 mg, QD; C1D21; plasma; read-out: Cmax, Mean
Property: Cmax (ng/mL)
Numbers only, in ng/mL.

Requested read-out: Cmax. Entry: `Nc1ncc(-c2cnn(C3CCNCC3)c2)cc1-c1nnc(CC2CC2)o1` 147

----------
- Assay: Plasma pharmacokinetics, QD and BID cohorts (non-compartmental)
- Assay type: in vivo, human
- Particulars: human, plasma, oral, 200 mg, 200 mg BID, C1D1, mean, n=3, plasma; read-out: Tmax
Property: Tmax (h)
Answers are plain numbers, in h.

Requested read-out: Tmax. Entry: Nc1ncc(-c2cnn(C3CCNCC3)c2)cc1-c1nnc(CC2CC2)o1 [SLC-391] 9.7

----------
- Assay: Plasma pharmacokinetics, QD and BID cohorts (non-compartmental)
- Type: in vivo, human
- Particulars: human, plasma, oral, 110 mg, 110 mg BID, C1D21, mean, n=3, plasma; read-out: Tmax
Property: Tmax (h)
Answers are plain numbers, in h.

Requested read-out: Tmax. Entry: Nc1ncc(-c2cnn(C3CCNCC3)c2)cc1-c1nnc(CC2CC2)o1 [SLC-391] 2.4

----------
- Assay: Plasma pharmacokinetics, QD and BID cohorts (non-compartmental)
- Format: in vivo, human
- Particulars: human, plasma, oral, 110 mg, 110 mg BID, C1D1, median, n=3, plasma; read-out: AUC0–last
Property: AUC(0-t) (ng·h/mL)
Give bare numbers, in ng·h/mL.

Requested read-out: AUC(0-t). Entry: `Nc1ncc(-c2cnn(C3CCNCC3)c2)cc1-c1nnc(CC2CC2)o1` 1130

Source listed as paper PMC12736120.
